Where do these numbers come from? They come from paper PMC9538324.

assay text: in vitro
stated conditions: human
endpoint name: fold induction

Dear colleague, I am looking for the recorded fold induction of the following compound: CCc1nc(C(N)=O)c(Nc2ccc(N3CCC(N4CCN(C)CC4)CC3)c(OC)c2)nc1NC1CCOCC1
15

----------
Test system: A549-ACE2 cells
assay text: cells
stated conditions: Homo sapiens, A549-ACE2, read-out: EC50 for PLD induction
endpoint name: pEC50
The scale used: pEC50 is minus the common logarithm of the concentration in molar units.

Name the recorded pEC50 for CCc1nc(C(N)=O)c(Nc2ccc(N3CCC(N4CCN(C)CC4)CC3)c(OC)c2)nc1NC1CCOCC1 .
6.41

----------
System: SARS-CoV-2 (USA-WA1 strain)
assay text: microbe, parasite or virus in culture
Format: cell-based
stated conditions: Severe acute respiratory syndrome coronavirus 2, A549-ACE2, read-out: EC50 against SARS-CoV-2
endpoint name: EC50

Requested read-out: EC50. Entry: CCc1nc(C(N)=O)c(Nc2ccc(N3CCC(N4CCN(C)CC4)CC3)c(OC)c2)nc1NC1CCOCC1
~100 nM
